Listing of recorded GI50 by entry.
- Test system: SW-620
- EXPERIMENT_SUMMARY: NCI tumour cell line growth inhibition, 48 h
Activity calls are given as the source filed them. Rule as the data show it: active = GI50 up to about 1.1 µM and inactive = higher. Where a SMILES comes first, the peptide text is derived from it. [ ]: non-standard residue; d: D form. Ac5c = NC1(C(=O)O)CCCC1
PROPERTY_MEASURED: GI50

molecule=CC1CCCOc2ccc(cc2)/C=N\c2ccc(cc2)CCc2ccc(cc2)/N=C\c2ccc(cc2)OCCC1 property_measured=GI50 measured="> 100 µM (inactive)"
molecule="COC(=O)C1(NC(=O)C(C)NC(=O)C(CCCCN)NC(=O)C(CC(C)C)NC(C)=O)CCCC1 (stereo not drawn) (Ac-LKA[Ac5c]-OMe; configuration not given here)" property_measured=GI50 measured="> 100 µM (inactive)"
molecule=CC1(C)N=C(N)N=C(N)N1c1ccc(OCC(=O)Nc2cccc(S(=O)(=O)F)c2)c(Cl)c1 property_measured=GI50 measured="3.71 µM (inactive)"
molecule="CC1(C)CCCCCCCCCC(C)(CCCCCCCCCCCCO)C1=O (stereo not drawn)" property_measured=GI50 measured="18.3 µM (inactive)"
molecule=O=C1CNc2cc(N3CCCCC3)ccc2N1 property_measured=GI50 measured="> 100 µM (inactive)"
molecule=Clc1ccc(/C=C/c2nc(Cl)c(-c3ccc(Cl)cc3)c(Cl)n2)cc1 property_measured=GI50 measured="68.7 µM (inactive)"
molecule=O=C(/C=C/c1ccc(O)c(O)c1)OCCc1cccc2ccccc12 property_measured=GI50 measured="5.07 µM (inactive)"
molecule=CC1(C)C(=O)C(C)(C)C1=S property_measured=GI50 measured="> 100 µM (inactive)"
molecule=Cc1nc(N(C(C)C)C(C)C)c(C(C)C)o1 property_measured=GI50 measured="> 100 µM (inactive)"
molecule=O=c1/c(=C/c2ccccc2O)sc2nc3ccccc3n12 property_measured=GI50 measured="40.5 µM (inactive)"
molecule="CC1=CC(C)C(O)C(C)/C=C\\C(O)C/C=C(/C)C(=O)CC(O)C(C)\\C=C/C=C\\C=C/C(=O)NC2=C(O)C(=O)c3c(cc(C)c(O)c3C1=O)C2=O (stereo not drawn)" property_measured=GI50 measured="> 100 µM (inactive)"
molecule=Oc1cc(-c2ccco2)nc2cc3c(cc12)OCO3 property_measured=GI50 measured="25.9 µM (inactive)"
molecule=Cn1cc(NC(=O)c2cc(NC(=O)CCCCCCCCCCC(=O)Nc3cc(C(=O)Nc4cc(C(=O)NCCC(=N)N)n(C)c4)n(C)c3)cn2C)cc1C(=O)NCCC(=N)N property_measured=GI50 measured="17.9 µM (inactive)"
molecule="CCCCCCCC1c2cc3nc(cc4[nH]c(cc5nc(cc([nH]2)[C@@]1(C)CC(=O)N(C)C)C(C)=C5CCC(=O)O)c(CCC(=O)O)c4C)C=C3C (stereo partly drawn)" property_measured=GI50 measured="42.8 µM (inactive)"
molecule=[N-]=[N+]=Nc1nnc(CCCCc2nnc(N=[N+]=[N-])o2)o1 property_measured=GI50 measured="> 100 µM (inactive)"
molecule=COC(=O)c1ccccc1/C=C1\Cc2cc3c(cc2C1=O)CCC3 property_measured=GI50 measured="> 100 µM (inactive)"
molecule=CC(=O)OCC(=O)[C@@]12OC(C)(C)O[C@@H]1C[C@H]1[C@@H]3CC=C4C[C@@H](O)CC[C@]4(C)[C@H]3CC[C@@]12C property_measured=GI50 measured="> 100 µM (inactive)"
molecule=CC1(C)O[C@@H](C[C@]2(C#N)C[C@H](CCl)OC(C)(C)O2)C[C@@H](C#N)O1 property_measured=GI50 measured="> 100 µM (inactive)"
